Molecular target: IDH2 R172K (Homo sapiens, UniProt P48735, R172K)
Sequence (P48735 40-452 R172K): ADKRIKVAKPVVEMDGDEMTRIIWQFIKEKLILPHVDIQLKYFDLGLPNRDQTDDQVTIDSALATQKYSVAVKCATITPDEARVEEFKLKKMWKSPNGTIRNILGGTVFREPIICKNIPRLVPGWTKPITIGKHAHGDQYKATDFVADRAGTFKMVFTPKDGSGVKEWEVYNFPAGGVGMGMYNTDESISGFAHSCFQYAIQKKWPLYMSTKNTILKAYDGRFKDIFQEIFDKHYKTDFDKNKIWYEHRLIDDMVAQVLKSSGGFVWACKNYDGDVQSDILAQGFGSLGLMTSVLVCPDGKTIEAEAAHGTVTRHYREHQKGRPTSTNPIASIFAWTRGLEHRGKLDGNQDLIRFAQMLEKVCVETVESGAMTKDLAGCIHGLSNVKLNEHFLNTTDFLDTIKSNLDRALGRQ
Assay: IDH2 R172K enzymatic assay (NADPH cofactor depletion, diaphorase/resazurin readout)
Conditions: read-out: Enz R172K
endpoint-label: IC50

CC(O)C(C)Nc1nc(Nc2ccnc(C(F)(F)F)c2)nc(-c2cccc(C(F)(F)F)n2)n1 (stereo not drawn) [Compound 548] : 100 to 1000 nM
CC(C)Nc1nc(Nc2ccccc2)nc(-c2cccc(C(F)(F)F)n2)n1 [Compound 247] : < 100 nM
CC(C)Nc1nc(Nc2ccc(F)nc2)nc(-c2ccccc2)n1 [Compound 196] : 100 to 1000 nM
c1ccc(Nc2nc(NCC3CC3)nc(-c3ccccc3)n2)cc1 [Compound 111] : < 100 nM
CC(C)Nc1nc(Nc2ccccc2)nc(-c2ccccc2NS(C)(=O)=O)n1 [Compound 109] : 1000 to 10000 nM
CC(C)Nc1nc(Nc2ccccc2)nc(-c2ccccc2)n1 [Compound 100] : < 100 nM

For the molecule CC1(C(=O)Nc2nc(Nc3ccccc3)nc(-c3ccccc3)n2)CC1 [Compound 245] , give its measured IC50 value.
100 to 1000 nM

For the molecule CCOC(=O)Nc1nc(Nc2ccccc2)nc(-c2ccccc2)n1 [Compound 181] , give its measured IC50 value.
100 to 1000 nM

For the molecule c1ccc(Nc2nc(NC3CCOCC3)nc(-c3ccccc3)n2)cc1 [Compound 168] , give its measured IC50 value.
100 to 1000 nM

---

molecular target: IDH2 R140Q (Homo sapiens, UniProt P48735, R140Q); assay: IDH2 R140Q enzymatic assay (cofactor depletion, similar format); assay type: biochemical; settings: read-out: Enz R140Q
endpoint-label: IC50

Some solved cases for reference:
N#Cc1cc(Nc2nc(NC3C4COCC43)nc(-c3cccc(C(F)(F)F)n3)n2)ccn1 (centres unmarked) [Compound 505] : 100 to 1000 nM
CC(CO)CNc1nc(Nc2ccnc(C(F)(F)F)c2)nc(-c2cccc(C(F)(F)F)n2)n1 (centres unmarked) [Compound 552] : 100 to 1000 nM
CC(C)(O)CNc1nc(Nc2cncc(F)c2)nc(-c2cccc(Cl)n2)n1 [Compound 390] : 1000 to 10000 nM

For the compound Cc1cccc(C)c1-c1nc(Nc2ccccc2)nc(NC(C)C)n1 [Compound 117] , give its measured IC50 value.
100 to 1000 nM

For the compound CC(C)Nc1nc(Nc2cncc(C(F)(F)F)c2)nc(-c2ccccc2F)n1 [Compound 372] , give its measured IC50 value.
< 100 nM

For the compound FC(F)(F)c1cc(Nc2nc(NC3CCOC3)nc(-c3cccc(C(F)(F)F)n3)n2)ccn1 (centres unmarked) [Compound 529] , give its measured IC50 value.
100 to 1000 nM

For the compound CC(C)Nc1nc(Nc2ccnc(C(F)F)c2)nc(-c2cccc(C(C)(F)F)n2)n1 [Compound 675] , give its measured IC50 value.
100 to 1000 nM

For the compound CC(C)Nc1nc(Nc2ccnc(C(F)(F)F)c2)nc(-c2cccc(O)c2)n1 [Compound 640] , give its measured IC50 value.
< 100 nM
